Molecular target: T1, recombinant human IGF-II (Insulin-like Growth Factor II) (human, UniProt P01344 25-91, biotinylated (Biotinyl-IGF-II, GroPep) where immobilised in SPR, site not stated; not biotinylated in ITC and as SPR analyte)
T1 construct: also called IGF2; IGF-2
T1 sequence (P01344 25-91 limits assumed): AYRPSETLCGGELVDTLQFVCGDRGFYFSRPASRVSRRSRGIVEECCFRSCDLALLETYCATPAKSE
Experiment: SPR, IGF-II immobilised, steady state
MEASUREMENT_TYPE: Kd (nM)
Just the number please, in nM, no unit attached.

binder="IGF2R domain 11 with isoleucine at position 1544 (E1544I) (receptor) NEHDDCQVTNPSTGHLFDLSSLSGRAGFTAAYSIKGLVYMSICGENENCPPGVGACFGQTRISVGKANKRLRYVDQVLQLVYKDGSPCPSKSGLSYKSVISFVCRPEAGPTNRPMLISLDKQTCTLFFSWHTPLACEQATHHHHHH" measurement_type=Kd unit_annotation=nM observed_measurement=42.5

Shift focus to the following entry.
Q: Quick one: Kd of IGF2R domain 11 with threonine at position 1544 (E1544T) (receptor) NEHDDCQVTNPSTGHLFDLSSLSGRAGFTAAYSTKGLVYMSICGENENCPPGVGACFGQTRISVGKANKRLRYVDQVLQLVYKDGSPCPSKSGLSYKSVISFVCRPEAGPTNRPMLISLDKQTCTLFFSWHTPLACEQATHHHHHH ?
Result: 60
